- system: type B monoamine oxidase (MAO.B) (Rattus norvegicus, UniProt P19643)
- Sequence (P19643 1-520): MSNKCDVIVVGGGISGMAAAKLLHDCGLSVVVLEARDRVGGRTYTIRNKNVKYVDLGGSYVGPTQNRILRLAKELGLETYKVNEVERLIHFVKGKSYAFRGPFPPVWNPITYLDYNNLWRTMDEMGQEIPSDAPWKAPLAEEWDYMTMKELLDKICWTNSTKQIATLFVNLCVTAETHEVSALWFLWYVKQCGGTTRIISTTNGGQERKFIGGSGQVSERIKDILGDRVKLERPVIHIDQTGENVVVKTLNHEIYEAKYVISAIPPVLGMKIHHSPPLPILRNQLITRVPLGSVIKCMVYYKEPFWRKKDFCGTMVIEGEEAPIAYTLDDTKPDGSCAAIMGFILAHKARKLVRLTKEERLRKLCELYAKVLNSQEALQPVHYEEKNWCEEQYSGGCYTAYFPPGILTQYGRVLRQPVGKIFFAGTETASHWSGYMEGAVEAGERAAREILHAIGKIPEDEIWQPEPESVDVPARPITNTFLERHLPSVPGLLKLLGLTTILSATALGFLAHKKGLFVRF
measured.endpoint: pIC50
Would you please state pIC50, meaning minus log10 of the concentration in mol/L, as a bare number?

Solved entries:
O=C1OC(CO)CN1c1ccc(OCc2cccc(Cl)c2)cc1 (racemic) [Racemic of (Ia), reference compound] :: 7.70
CNCC1CN(c2ccc(OCc3cccc(Cl)c3)cc2)C(=O)O1 (racemic) [Racemic of (Ib), reference compound] :: 7.47
CNC[C@@H]1CN(c2ccc(OCc3cccc(Cl)c3)cc2)C(=O)O1 :: 7.52

Next, consider the following molecule.
Reported pIC50 for type B monoamine oxidase (MAO.B) (Rattus norvegicus, UniProt P19643), given `O=C1O[C@H](CO)CN1c1ccc(OCc2cccc(Cl)c2)cc1` ?
7.07

====

- system: type A monoamine oxidase (MAO.A) (Rattus norvegicus, UniProt P21396)
- Sequence (P21396 1-526): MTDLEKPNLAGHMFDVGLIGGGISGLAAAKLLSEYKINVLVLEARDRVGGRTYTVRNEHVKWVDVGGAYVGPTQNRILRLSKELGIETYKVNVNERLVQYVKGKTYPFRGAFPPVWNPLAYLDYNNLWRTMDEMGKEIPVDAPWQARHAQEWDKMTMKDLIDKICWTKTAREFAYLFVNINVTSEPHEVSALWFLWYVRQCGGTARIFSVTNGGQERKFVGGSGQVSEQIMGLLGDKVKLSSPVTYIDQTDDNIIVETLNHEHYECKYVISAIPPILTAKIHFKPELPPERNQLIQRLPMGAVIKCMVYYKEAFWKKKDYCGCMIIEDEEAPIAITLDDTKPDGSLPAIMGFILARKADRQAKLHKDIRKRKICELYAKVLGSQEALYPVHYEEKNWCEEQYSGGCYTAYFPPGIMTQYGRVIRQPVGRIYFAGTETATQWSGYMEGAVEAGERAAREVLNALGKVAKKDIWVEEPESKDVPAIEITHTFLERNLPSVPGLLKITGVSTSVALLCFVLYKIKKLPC
measured.endpoint: pIC50
Would you please state pIC50, meaning minus log10 of the concentration in mol/L, as a bare number?

O=C1O[C@H](CO)CN1c1ccc(OCc2cccc(Cl)c2)cc1 :: 5.05
O=C1OC(CO)CN1c1ccc(OCc2cccc(Cl)c2)cc1 (racemic) [Racemic of (Ia), reference compound] :: 6.22
CNCC1CN(c2ccc(OCc3cccc(Cl)c3)cc2)C(=O)O1 (racemic) [Racemic of (Ib), reference compound] :: 4.85

Next, consider the following molecule.
Entry `CNC[C@@H]1CN(c2ccc(OCc3cccc(Cl)c3)cc2)C(=O)O1` has what pIC50?
4.30

====

- run.description: oral acute toxicity in mice (Miller and Tainter's method)
- Type: in vivo
- cond: mouse, in vivo; Table 3; mice, oral; read-out: Acute toxicity (mice) LD 50
- Source text: The results obtained in the in vitro test are shown in table 1 below and the results obtained in the ex vivo test, as well as the oral acute toxicity in mice evaluated according to MILLER and TAINTER's method [Proc. Soc.
measured.endpoint: LD50

Entry `O=C1O[C@H](CO)CN1c1ccc(OCc2cccc(Cl)c2)cc1` has what LD50?
> 1000 mg/kg

Entry O=C1OC(CO)CN1c1ccc(OCc2cccc(Cl)c2)cc1 (racemic) [Racemic of (Ia), reference compound] has what LD50?
> 1000 mg/kg

====

- run.description: oral acute toxicity in mice (Miller and Tainter's method)
- Type: in vivo
- cond: mouse, in vivo; Table 2; mice, oral; read-out: Acute toxicity (mice) LD 50
Catalogue of LD50 readings, one per entry.

CNC[C@@H]1CN(c2ccc(OCc3cccc(Cl)c3)cc2)C(=O)O1 [(Ib)] :: > 1000 mg/kg

Next, consider the following compound.
Entry CNCC1CN(c2ccc(OCc3cccc(Cl)c3)cc2)C(=O)O1 (racemic) [Racemic of (Ib), reference compound] has what LD50?
> 1000 mg/kg
